test system: S. invicta workers; settings: colony 2, 24 h
We label by threshold. Values of LD50 strictly beneath 90 μg/ant are criterion met. Values of 90 μg/ant and up are criterion not met.

[
  {
    "compound": "CCCCOC(=O)c1ccccc1 [nBB, n-butyl benzoate]",
    "class.label": "criterion met"
  },
  {
    "compound": "CCCCCCOC(=O)c1ccccc1 [nHB, n-hexyl benzoate]",
    "class.label": "criterion met"
  },
  {
    "compound": "CC(C)COC(=O)c1ccccc1 [iBB, iso-butyl benzoate]",
    "class.label": "criterion not met"
  },
  {
    "compound": "COC(=O)c1ccccc1OC [M2MOB, methyl 2-methoxybenzoate]",
    "class.label": "criterion not met"
  },
  {
    "compound": "COC(=O)c1cccc(C)c1 [M3MB, methyl 3-methylbenzoate]",
    "class.label": "criterion not met"
  },
  {
    "compound": "CCCOC(=O)c1ccccc1 [nPrB, n-propyl benzoate]",
    "class.label": "criterion not met"
  },
  {
    "compound": "COC(=O)c1ccccc1 [MB, methyl benzoate]",
    "class.label": "criterion not met"
  },
  {
    "compound": "CCOC(=O)c1ccccc1 [EB, ethyl benzoate]",
    "class.label": "criterion not met"
  },
  {
    "compound": "CCCCCOC(=O)c1ccccc1 [nPeB, n-pentyl benzoate]",
    "class.label": "criterion met"
  }
]

Now for a further compound.
INPUT: Input COC(=O)c1cccc(OC)c1 [M3MOB, methyl 3-methoxybenzoate] ; condition: LD50 strictly below 90 μg/ant. Does it hold?
OUTPUT: criterion met

* * *

Each entry below carries its recorded LC50 (95% CL).
system: L. dispar larvae; experiment: Larvicidal toxicity, treated filter paper in Petri dish; format: in vivo; settings: 1st stage larvae, 24 hr

Example cases with answers are listed next.
[
  {
    "compound": "COC(=O)c1cccc(C)c1 [M3MB, methyl 3-methylbenzoate]",
    "measured": "0.102 (0.083-0.121) mg/cm^2"
  },
  {
    "compound": "C/C(=N\\C#N)N(C)Cc1ccc(Cl)nc1 [AP, acetamiprid, reference compound]",
    "measured": "0.221 (0.167-0.291) mg/cm^2"
  },
  {
    "compound": "CC(C)COC(=O)c1ccccc1 [iBB, iso-butyl benzoate]",
    "measured": "0.193 (0.165-0.234) mg/cm^2"
  }
]

Let us move to another entry and its LC50 (95% CL).
INPUT: # return recorded LC50 (95% CL) for entry CCCOC(=O)c1ccccc1 [nPrB, n-propyl benzoate]
OUTPUT: 0.159 (0.135-0.199) mg/cm^2

* * *

tested on: H. halys eggs; experiment: Ovicidal toxicity, direct spray on eggs; type: in vivo; conditions: eggs sprayed, 10 days
Each entry below carries its recorded LC50 (95% CL).

Example cases with answers are listed next.
[
  {
    "compound": "CCOC(=O)c1ccccc1 [EB, ethyl benzoate]",
    "target.or.test.system": "H. halys eggs",
    "LC50 (95% CL)": "0.014 (0.010-0.019) mg/cm^2"
  },
  {
    "compound": "C=COC(=O)c1ccccc1 [VB, vinyl benzoate]",
    "target.or.test.system": "H. halys eggs",
    "LC50 (95% CL)": "0.017 (0.010-0.024) mg/cm^2"
  },
  {
    "compound": "COC(=O)c1cccc(C)c1 [M3MB, methyl 3-methylbenzoate]",
    "target.or.test.system": "H. halys eggs",
    "LC50 (95% CL)": "0.016 (0.009-0.024) mg/cm^2"
  },
  {
    "compound": "COC(=O)c1ccccc1OC [M2MOB, methyl 2-methoxybenzoate]",
    "target.or.test.system": "H. halys eggs",
    "LC50 (95% CL)": "0.011 (0.006-0.015) mg/cm^2"
  },
  {
    "compound": "COC(=O)c1ccccc1C [M2MB, methyl 2-methylbenzoate]",
    "target.or.test.system": "H. halys eggs",
    "LC50 (95% CL)": "0.014 (0.005-0.027) mg/cm^2"
  }
]

INPUT: # return recorded LC50 (95% CL) for entry COC(=O)c1cccc(OC)c1 [M3MOB, methyl 3-methoxybenzoate]
OUTPUT: 0.016 (0.008-0.026) mg/cm^2

INPUT: # return recorded LC50 (95% CL) for entry COC(=O)c1ccccc1[N+](=O)[O-] [M2NB, methyl 2-nitrobenzoate]
OUTPUT: 0.010 (0.002-0.019) mg/cm^2

INPUT: # return recorded LC50 (95% CL) for entry COC(=O)c1ccccc1Cl [M2CB, methyl 2-chlorobenzoate]
OUTPUT: 0.011 (0.008-0.013) mg/cm^2

INPUT: # return recorded LC50 (95% CL) for entry COC(=O)c1ccccc1 [MB, methyl benzoate]
OUTPUT: 0.020 (0.012-0.026) mg/cm^2
